- Assay Protocol: chemical genetic growth profiling, strain panel (AID 1159580);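 further: tested at 20 µM; growth read once vehicle control cultures reached saturation at 30 °C; 1 = growth at the plate median or of vehicle wells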
- Cond: S. cerevisiae strains, growth OD, strain wild type
In all, about 5,500 compounds went through this assay and about 2,000 (36%) were called active. Inconclusive results (about 18%) are left out. No stated cut-off is given here; in the data, active means normalized growth mostly below about 0.91 (no sharp cut-off); inconclusive means no clear call, values can overlap the other calls; inactive means mostly above about 0.92. Some of the results follow. Where a SMILES comes first, the peptide text is derived from it.
Your response should consist of one outcome taken from Yes for active, No for inactive

>>> assigned_category("O=C(O)C(O)C(O)C(O)C(O)C(=O)O (stereo not given)")
"No"
>>> assigned_category("O=S(=O)(NCc1ccc(F)cc1F)c1cccc(C(F)(F)F)c1")
"No"
>>> assigned_category("FC(F)(F)c1cccc(N2CCNCC2)c1")
"No"
>>> assigned_category("O=C(O)CCCCCCCC(=O)O")
"No"
>>> assigned_category("NC1(C(=O)O)CC1")
"No"
>>> assigned_category("Cc1nn(-c2ccccc2)nc1-c1nnc(-c2ccc(Cl)cc2)o1")
"No"
>>> assigned_category("Cc1cc(Cl)ccc1Oc1ccc(N)cn1")
"No"
>>> assigned_category("CN=C(N)NCCCC(N)C(=O)O (stereo not given)")
"No"
>>> assigned_category("CC(=O)N[C@@H](CC(=O)O)C(=O)N[C@@H](CCC(=O)O)C(=O)O (Ac-Asp-Glu-OH)")
"No"
>>> assigned_category("NC1(C(=O)O)CCC1")
"No"

Query string: Hi, sorry to bother you, what did the test record for O=S(=O)(c1ccc(Cl)cc1)c1cc(C(F)(F)F)cc(C(F)(F)F)c1 ?
Result string: No

Query string: What is the recorded call for this compound in the test? S=C1NC2(CCCCC2)NN1c1ccccc1
Result string: Yes

----------
- Assay Protocol: chemical genetic growth profiling, strain panel (AID 1159580)
- Cond: S. cerevisiae deletion strains, growth OD, locus YPL241C, strain CIN2, stronger effect = lower value
Hit rate of the full screen: of about 5,500 compounds, about 2,000 (36%) were called active. Another 18% or so got no clear call; they are omitted. The list shows a part of the results.
Readout Name: normalized growth
Give bare numbers.

Some solved entries appear below for comparison.
>>> quantitative_result("COc1cc2nc(N3CC=[N+](C(=O)c4ccco4)CC3)nc(N)c2cc1OC")
1
>>> quantitative_result("COc1c(C)c2c(c(O)c1C/C=C(\\C)CCC(=O)O)C(=O)OC2")
0.967
>>> quantitative_result("Cc1nn(Cc2ccccc2Cl)c(=N)s1")
0.993

// each compound listed below needs its normalized growth
1. CNc1ccc(C(=O)CC(O)CCC(C)C2OC(=O)CC(O)CC(=O)CC(O)CC(O)CC(O)CC(O)CC3(O)CC(O)C(C(=O)OC)C(CC(OC4OC(C)C(O)C(N)C4O)/C=C/C=C/C=C/C=C/C=C/C=C/C=C/C2C)O3)cc1 (configuration not stated)
2. O=c1[nH]c(=O)n(C2C[C@H](O)[C@@H](CO)O2)cc1C(F)(F)F (some centres not stated)
3. c1ccc(-c2ccc(-c3csc(-c4cccnc4)n3)cc2)cc1

Result string:
1. 0.0521
2. 0.983
3. 0.979

Query string: Give normalized growth for the following compound: CNc1ncnc2c1ncn2[C@@H]1O[C@H](CO)[C@H](O)C1O (some centres not stated)
Result string: 1

----------
What normalized growth was measured for each of the following?
- Assay Protocol: chemical genetic growth profiling, strain panel (AID 1159580);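 further: tested at 20 µM; growth read once vehicle control cultures reached saturation at 30 °C; 1 = growth at the plate median or of vehicle wells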
- Cond: S. cerevisiae deletion strains, growth OD, locus YHR030C, strain SLT2, stronger effect = lower value
Screen size: about 5,500 compounds; about 2,000 (36%) were called active. About 18% were inconclusive and are not listed. The list shows a part of the results.
One number for each entry.

>>> quantitative_result("Fc1ccc([C@@H]2CCNC[C@H]2COc2ccc3c(c2)OCO3)cc1")
1.01
>>> quantitative_result("CCOC(=O)C(=CNNS(=O)(=O)c1cc(C(F)(F)F)cc(C(F)(F)F)c1)C(=O)OCC")
1

Required: normalized growth, one value per compound below.
1. CC(=O)NCCc1c[nH]c2ccc(O)cc12
2. Cc1c[nH]c2ccccc12

Result string:
[0.997, 0.992]

// each listed compound needs a value for normalized growth
1. CC(=O)O[C@H]1C[C@@H](OC(C)=O)C(C)(C)C2C[C@@H](OC(C)=O)[C@]3(C)C(CC[C@@]4(C)[C@H](c5ccoc5)OC(=O)[C@H]5O[C@]543)[C@]21C (stereo partly specified)
2. COC(=O)/C(C)=C\CC12OC(C)(C)C3CC(C=C4C(=O)c5c(OC)c6c(c(CC=C(C)C)c5OC431)OC(C)(CCC=C(C)C)C=C6)C2=O (stereo unspecified)

Result string:
1: 0.978; 2: 1

Respectfully, I request normalized growth for each entry included below.
1. C=CCS(=O)C[C@H](N)C(=O)O (stereo partly specified)
2. CC(=O)C1CCC2C3CCC4C[C@H](O)CCC4(C)C3C[C@H](O)C12C (stereo partly specified)
3. Cc1onc(-c2ccccc2)c1-c1ccc(S(N)(=O)=O)cc1

Result string:
[1.02, 1.01, 1.01]

----------
Would you kindly list normalized growth for each of these compounds?
- Assay Protocol: chemical genetic growth profiling, strain panel (AID 1159580);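 further: tested at 20 µM; growth read once vehicle control cultures reached saturation at 30 °C; 1 = growth at the plate median or of vehicle wells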
- Cond: S. cerevisiae deletion strains, growth OD, locus YHR027C, strain rpn1, stronger effect = lower value
In all, about 5,500 compounds went through this assay and about 2,000 (36%) were called active. Inconclusive results (about 18%) are left out. This is one part of the list. Where a SMILES comes first, the peptide text is derived from it.
One number for each entry.

>>> quantitative_result("NCCCCC(=O)O")
1.01
>>> quantitative_result("CC1(C)N([O-])[N+](=O)C1(C)Br (centres undefined)")
0.991
>>> quantitative_result("CC(=O)N[C@@H](CC(=O)O)C(=O)N[C@@H](CCC(=O)O)C(=O)O (Ac-Asp-Glu-OH)")
1.01
>>> quantitative_result("CC12CCCCC1(Br)[N+](=O)N2[O-] (centres undefined)")
0.966
>>> quantitative_result("COP(=S)(OC)Oc1ccc(Sc2ccc(OP(=S)(OC)OC)cc2)cc1")
1.01
>>> quantitative_result("O=c1oc2ccccc2cc1O")
0.986
>>> quantitative_result("Cc1nnc(NS(=O)(=O)c2ccc(N)cc2)s1")
1
>>> quantitative_result("CC(=O)O[C@H]1C[C@@]2(C)[C@@H](C[C@@H](O)C3[C@]2(C)CC[C@H]2[C@H](C)[C@H](O)CC[C@]32C)/C1=C(/CCC=C(C)C)C(=O)O (some centres undefined)")
1.03

With those in mind, consider the next compound.
Query string: Let me know recorded normalized growth for NCCCCCC(=O)O , thanks.
Result string: 0.999

----------
I'd be grateful if you could share measured normalized growth for these entries.
- Assay Protocol: chemical genetic growth profiling, strain panel (AID 1159580);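 further: tested at 20 µM; growth read once vehicle control cultures reached saturation at 30 °C; 1 = growth at the plate median or of vehicle wells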
- Cond: S. cerevisiae deletion strains, growth OD, locus YML124C, strain tub3, stronger effect = lower value
Out of some 5,500 compounds screened, about 2,000 (36%) were called active. Not shown: some 18% with an inconclusive outcome. Some of the results follow.
One number for each entry.

>>> quantitative_result("NCCCCNCCCN")
0.986
>>> quantitative_result("O=c1oc2ccccc2cc1O")
1.01
>>> quantitative_result("CC(=O)OCC(=O)[C@@]1(O)CCC2C3CCC4=CC(=O)C=CC4(C)C3[C@@H](O)C[C@@]21C (some centres undefined)")
1.02
>>> quantitative_result("C[C@@H]1CC[C@H]2C(C)(C)C3CC12CC[C@@]3(C)O (some centres undefined)")
0.99
>>> quantitative_result("C[C@]12CCC3C(CC[C@H]4C[C@H](O)CC[C@]34C)C1CC[C@@H]2O (some centres undefined)")
1.01

Your task in this section: give normalized growth for each listed record.
1. CC(=O)NCCc1c[nH]c2ccc(O)cc12
2. CC(=O)OC1CC(O)C(C)(C)C2CC(=O)C3(C)C(CCC4(C)C(c5ccoc5)OC(=O)C5OC543)C12C (centres undefined)

Result string:
0.995
1

// input: 3 molecules below; output: normalized growth for each
1. CC(C)c1nc(N(C)S(C)(=O)=O)nc(-c2ccc(F)cc2)c1/C=C/[C@@H](O)C[C@@H](O)CC(=O)O
2. CCCn1c(=O)c2[nH]c(C3CCCC3)nc2n(CCC)c1=O
3. CC1OC(O[C@H]2/C=C/C=C/C=C/C=C/C=C/C=C/C=C/[C@H](C)[C@@H](O)[C@@H](C)[C@H](C)OC(=O)CC(O)CC(O)CCC(O)C(O)CC(O)C[C@]3(O)C[C@H](O)C(C(=O)O)C(C2)O3)C(O)[C@H](N)C1O (some centres undefined)

Result string:
1. 0.997
2. 0.972
3. 1.01

For each entry beneath this line, provide reported normalized growth.
1. NCC[C@@H](O)C(=O)N[C@@H]1C[C@H](N)[C@@H](O[C@H]2O[C@H](CN)[C@@H](O)[C@H](O)[C@H]2O)[C@H](O)[C@H]1O[C@H]1O[C@H](CO)[C@@H](O)[C@H](N)C1O (some centres undefined)
2. NC1(C(=O)O)CCCC1
3. O=C(O)C(O)C(O)C(O)C(O)C(=O)O (centres undefined)
4. COC(=O)[C@@H]1OC(=O)C2OC23[C@@]1(C)CCC1[C@@]2(C)CCC(=O)C(C)(C)C2C[C@@H](OC(C)=O)[C@]13C (some centres undefined)
5. Clc1ccc(C(c2ccccc2Cl)C(Cl)Cl)cc1 (centres undefined)
6. CN1CCC[C@@H]1CCO[C@](C)(c1ccccc1)c1ccc(Cl)cc1
7. N[C@@H](C(=O)O)[C@@H](O)[C@H](O)[C@H](O)CO

Result string:
1. 1.01
2. 0.998
3. 0.985
4. 0.99
5. 0.988
6. 0.994
7. 1.02

# map each molecule to its normalized growth
1. COc1cc(C)c2c(=O)cc(-c3ccccc3)oc2c1
2. Cc1cccc(C)c1NC(=O)C1CCCCN1C (centres undefined)
3. Oc1c(Cl)cc(Cl)c(Cl)c1Cc1c(O)c(Cl)cc(Cl)c1Cl

Result string:
0.973
1.02
0.0588

// data source = PubChem BioAssay AID1159580
